Assign growth to each entry below.
system: SN12C renal; test: NCI-60 one-dose screen, 48 h (100 = growth as untreated, 0 = no growth, -100 = all killed); settings: 10 µM unless noted
About 83,000 compounds went through this panel and 20% of them were active in at least one assay; those are over-represented in the sample as a whole.
Your answer is read as %, so omit the unit and give the number.

Task: Please give the measured growth for this compound: `O=C(/C=C1\C=CN(CCCCF)c2ccccc21)n1ccc2ccccc21`
Output: 94.6

Task: Please give the measured growth for this compound: `CCCCCCNC(=O)Oc1ccc(/C(=C(/C)c2ccc(OC)cc2)c2ccc(OCCN3CCCC3)cc2)cc1`
Output: 82.3

Task: Please give the measured growth for this compound: `NCCN1CCN(c2nc(-c3ccccc3)nc3nc(-c4ccccc4)oc23)CC1`
Output: -79.4

Task: Please give the measured growth for this compound: CC1(C)CC[C@]2(C(=O)O)CC[C@]3(C)C(=CCC4[C@@]5(C)C[C@@H](O)[C@@H]6OC(c7ccccc7O)OC[C@@]6(C)C5CC[C@]43C)C2C1 (some centres undefined)
Output: 60.1
